targetDesc: Muscarinic acetylcholine receptor M2 (Homo sapiens, UniProt P08172)
Sequence (P08172 whole entry): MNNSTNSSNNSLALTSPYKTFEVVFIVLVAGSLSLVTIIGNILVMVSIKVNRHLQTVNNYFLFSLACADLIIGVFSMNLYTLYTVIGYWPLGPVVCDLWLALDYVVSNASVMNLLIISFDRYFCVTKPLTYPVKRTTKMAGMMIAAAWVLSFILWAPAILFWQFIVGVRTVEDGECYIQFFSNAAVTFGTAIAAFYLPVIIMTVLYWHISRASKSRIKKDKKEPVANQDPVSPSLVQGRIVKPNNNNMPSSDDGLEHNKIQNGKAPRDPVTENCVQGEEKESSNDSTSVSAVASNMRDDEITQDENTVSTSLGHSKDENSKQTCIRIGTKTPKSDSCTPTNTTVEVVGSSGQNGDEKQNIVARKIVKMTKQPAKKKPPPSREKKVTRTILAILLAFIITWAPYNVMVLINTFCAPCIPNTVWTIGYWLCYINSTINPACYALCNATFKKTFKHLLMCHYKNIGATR
protocolNotes: Displacement of [3H]N-methyl Scopolamine from human cloned muscarinic M2 receptor expressed in CHO cells
Assay type: cell-based
valueType: pKi
Numbers only, as −log10 of the molar value.

smilesrepr=CC(C)N(CC[C@H](c1ccccc1)c1cc(CCNC(=O)CCCCCNC(=O)COc2ccc(/C=C/C3=[N+]4C(=Cc5ccc(-c6cccs6)n5[B-]4(F)F)C=C3)cc2)ccc1O)C(C)C measuredresult=8.05

Query (compound): CCN(CC)c1ccc(/C=C/c2cc[n+](CCC[N+](CC)(CC)CC)cc2)cc1 ; field requested: pKi 7.42
